# Tested on: 843782-103-R-J1-PDC complex spheroid viability
# ASSAY_DETAILS: Anticancer human tumor 843782-103-R-J1-PDC patient-derived lung adenocarcinoma cell line growth inhibition [RAS]; active = viability on the fitted dose curve at most 10% of control; inactive = the rest
# CONDITION_PARAMETERS: second compound 1 µM; first compound 0.00949 µM
The categories you may choose from are active, inactive

MOLECULE | LABEL
CCc1c2c(nc3ccc(O)cc13)-c1cc3c(c(=O)n1C2)COC(=O)[C@]3(O)CC + C#Cc1c(F)ccc2cc(O)cc(-c3ncc4c(N5CC6CCC(C5)N6)nc(OCC56CCCN5CC(F)C6)nc4c3F)c12 | active
CC1(C)CCC(Nc2ncc(C(F)(F)F)c(-c3c[nH]c4c(P(C)(C)=O)c(C#N)ccc34)n2)CN1 (centres undefined) + C#Cc1c(F)ccc2cc(O)cc(-c3ncc4c(N5CC6CCC(C5)N6)nc(OCC56CCCN5CC(F)C6)nc4c3F)c12 | inactive
CC1(C)CCC(Nc2ncc(C(F)(F)F)c(-c3c[nH]c4c(P(C)(C)=O)c(C#N)ccc34)n2)CN1 (centres undefined) + C=CC(=O)N1CCN(c2nc(OCC3CCCN3C)nc3c(F)c(-c4nc(N)cc(C)c4C(F)(F)F)c(Cl)cc23)C(C)C1 | inactive

Which outcome was entered for the molecule CCc1c2c(nc3ccc(O)cc13)-c1cc3c(c(=O)n1C2)COC(=O)[C@]3(O)CC + C=CC(=O)N1CCN(c2nc(OCC3CCCN3C)nc3c(F)c(-c4nc(N)cc(C)c4C(F)(F)F)c(Cl)cc23)C(C)C1 in this test?
active

====

# System: 843782-103-R-J1-PDC complex spheroid viability
# ASSAY_DETAILS: Anticancer human tumor 843782-103-R-J1-PDC cell line growth inhibition [RAS];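 also: viability read after seven days of compound exposure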
# CONDITION_PARAMETERS: second compound 0.3 µM; first compound 0.00316 µM; hits give low values
ATTRIBUTE_MEASURED: viability, T/C (%)
The reply should be a number in %, with the unit left off.

The examples below pair each entry with its known result.
MOLECULE | TARGET_ENTITY | viability, T/C [%]
C=CC(=O)Nc1cc(Nc2nccc(-c3cn(C)c4ccccc34)n2)c(OC)cc1N(C)CCN(C)C + CCn1c(-c2cc(N3CCN(C)CC3)cnc2C(C)OC)c2c3cc(ccc31)-c1csc(n1)CC(NC(=O)C1CC1C)C(=O)N1CCCC(N1)C(=O)OCC(C)(C)C2 | 843782-103-R-J1-PDC complex spheroid viability | 13.8
C=CC(=O)Nc1cc(Nc2nccc(-c3cn(C)c4ccccc34)n2)c(OC)cc1N(C)CCN(C)C + CCn1c(-c2cccnc2C(C)OC)c2c3cc(ccc31)N1CCOC(CC(NC(=O)C(C(C)C)N(C)C(=O)C3(F)CCN(C(=O)C#CC(C)(C)N(C)C)CC3)C(=O)N3CCCC(N3)C(=O)OCC(C)(C)C2)C1 | 843782-103-R-J1-PDC complex spheroid viability | 68
O=C(c1ccc(F)c(F)c1Nc1ccc(I)cc1F)N1CC(O)([C@@H]2CCCCN2)C1 + CCn1c(-c2cccnc2C(C)OC)c2c3cc(ccc31)N1CCOC(CC(NC(=O)C(C(C)C)N(C)C(=O)C3(F)CCN(C(=O)C#CC(C)(C)N(C)C)CC3)C(=O)N3CCCC(N3)C(=O)OCC(C)(C)C2)C1 | 843782-103-R-J1-PDC complex spheroid viability | 62.9

Next molecule, please.
Tell me viability, T/C of Nc1ccn(C2OC(CO)C(O)C2(F)F)c(=O)n1 (centres undefined) + CCn1c(-c2cc(N3CCN(C)CC3)cnc2C(C)OC)c2c3cc(ccc31)-c1csc(n1)CC(NC(=O)C1CC1C)C(=O)N1CCCC(N1)C(=O)OCC(C)(C)C2 when tested on 843782-103-R-J1-PDC complex spheroid viability.
14.3
